// data source = ChEMBL document CHEMBL1126478

Protein target, amino acids: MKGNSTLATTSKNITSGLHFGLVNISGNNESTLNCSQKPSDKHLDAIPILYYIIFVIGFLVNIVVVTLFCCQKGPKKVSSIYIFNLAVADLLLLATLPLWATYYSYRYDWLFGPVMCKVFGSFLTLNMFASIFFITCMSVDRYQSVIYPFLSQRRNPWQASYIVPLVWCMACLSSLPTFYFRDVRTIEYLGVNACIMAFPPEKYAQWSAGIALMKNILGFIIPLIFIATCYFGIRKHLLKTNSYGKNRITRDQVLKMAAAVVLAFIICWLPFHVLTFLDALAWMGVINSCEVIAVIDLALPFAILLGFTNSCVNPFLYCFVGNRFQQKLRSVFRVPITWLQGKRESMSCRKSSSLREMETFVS
PROPERTY_MEASURED: pIC50
Hey, just a heads up that pIC50 is the negative log base 10 of the concentration in molar.

ENTRY_SMILES | TEST_RESULT
Cc1cc(Cn2cnc3c2C[C@@H](C(=O)O)N(C(=O)C(c2ccccc2)c2ccccc2)C3)cc(I)c1O | 8.29

Please look at the following compound next.
Incoming: Which value of pIC50 has been reported for `Cc1cc(Cn2cnc3c2C[C@@H](C(=O)O)N(C(=O)C(c2ccccc2)c2ccccc2)C3)ccc1NCCCCCCNC(=O)CCNc1ccc([N+](=O)[O-])c2nonc12` in the records?
Outgoing: 8.44
